ASSAY_COMMENT: log BB estimated by QSAR equation (9)
PROTOCOL_CONDITIONS: Table 5; validation set, calculated by equation (9)
Everything with logBB_calc lower than -0.09 is No; everything else, including exactly -0.09, is Yes.

| MOLECULE | ANSWER_LABEL |
| --- | --- |
| CCN(CC)CCOC(=O)c1ccc(N)cc1 | No |
| CNCCC(Oc1ccc(C(F)(F)F)cc1)c1ccccc1 (stereo not drawn) | Yes |
| CCN(CC)CC(=O)Nc1c(C)cccc1C | Yes |
| CN(C)CCC=C1c2ccccc2CCc2ccccc21 | Yes |
| CN1CCN2c3ccccc3Cc3ccccc3C2C1 (stereo not drawn) | Yes |

----------
ASSAY_COMMENT: Brain lipid-water partition coefficient log MAbrain (membrane affinity) on immobilized brain lipid membranes
Type: physicochemical
PROTOCOL_CONDITIONS: Table 4; repeated parameter set
QUANTITY: logMAbrain

| COMPOUND | QUANTITY | READING |
| --- | --- | --- |
| CN(C)CCCN1c2ccccc2Sc2ccccc21 | logMAbrain | 3.20 |
| CN1CCN(CCCN2c3ccccc3Sc3ccc(C(F)(F)F)cc32)CC1 | logMAbrain | 4.70 |
| Clc1cccc(Cl)c1N=C1NCCN1 | logMAbrain | 1.30 |
| Cn1c(=O)c2c(ncn2C)n(C)c1=O | logMAbrain | 1.36 |
| C=C[C@H]1C[N@@]2CC[C@H]1C[C@@H]2[C@@H](O)c1ccnc2ccc(OC)cc12 | logMAbrain | 2.10 |
| CC(=O)Oc1ccccc1C(=O)O | logMAbrain | 1.40 |
| Cc1cc(=O)n(-c2ccccc2)n1C [Antipyrine, antipyrine] | logMAbrain | 1.33 |
| O=C(O)c1ccccc1O | logMAbrain | 1.30 |
| CC(C)NCC(O)COc1cccc2ccccc12 (stereo not drawn) | logMAbrain | 2.70 |

----------
Tested on: AGP (α1-acid glycoprotein)
Construct: fused on or other part: immobilised on silica beads (TRANSIL solid support)
ASSAY_COMMENT: AGP binding constants (TRANSIL AGP Binding Kit)

| COMPOUND | Kd [µM] |
| --- | --- |
| CNCCCN1c2ccccc2CCc2ccccc21 | 5.1 |
| CN1CCN(CCCN2c3ccccc3Sc3ccc(C(F)(F)F)cc32)CC1 | 0.25 |
| CN/C(=N/CCSCc1nc[nH]c1C)NC#N | 250 |
| Cn1c(=O)c2c(ncn2C)n(C)c1=O | 580 |
| CN(C)CCCN1c2ccccc2Sc2ccccc21 | 1.6 |
| CN(C)CCCN1c2ccccc2Sc2ccc(Cl)cc21 | 0.72 |
| O=C(O)c1ccccc1O | 640 |
| CN(C)CCCN1c2ccccc2CCc2ccccc21 | 3.1 |
| CC(=O)Oc1ccccc1C(=O)O | 460 |
| CC(C)Cc1ccc(C(C)C(=O)O)cc1 (stereo not shown) | 670 |
